MEASUREMENT_TARGET: Glucagon receptor (Homo sapiens)
Sequence (P47871 whole entry): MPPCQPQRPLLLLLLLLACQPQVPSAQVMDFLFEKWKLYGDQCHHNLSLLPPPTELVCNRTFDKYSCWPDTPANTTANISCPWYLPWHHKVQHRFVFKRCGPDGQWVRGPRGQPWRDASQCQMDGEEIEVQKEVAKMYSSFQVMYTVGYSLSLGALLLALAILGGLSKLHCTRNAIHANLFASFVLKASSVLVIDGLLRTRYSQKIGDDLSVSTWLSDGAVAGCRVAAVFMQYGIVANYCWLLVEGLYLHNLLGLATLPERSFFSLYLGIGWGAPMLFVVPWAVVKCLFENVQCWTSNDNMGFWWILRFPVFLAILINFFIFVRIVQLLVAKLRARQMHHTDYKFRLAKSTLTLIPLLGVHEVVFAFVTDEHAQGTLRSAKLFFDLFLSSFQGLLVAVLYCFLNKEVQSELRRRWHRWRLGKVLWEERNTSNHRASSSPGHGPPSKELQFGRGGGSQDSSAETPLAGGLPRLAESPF
TEST_METHOD_NOTES: Agonist activity at human GCGR expressed in HEK293 cells incubated for 30 mins and assessed as increase in cAMP accumulation measured by HTRF assay
Assay type: functional, cell-based
READOUT_NAME: log10 of EC50 (log10 of the value in nM)
Each number you see is log10 of EC50, and the unit inside the log is nM.

Consider the reported log10 of EC50 for these substances:
[
  {
    "SUBSTANCE": "H-HSQGTYTNDVSKYLDSRRAQDFIEWLKNGGPSSGAPPPS-NH2",
    "NUMERIC_READOUT": -0.82
  },
  {
    "SUBSTANCE": "H-HSQGTYTNDVTEYLDSRRAQDFIEWLIKGKPSSGAPPPS-NH2",
    "NUMERIC_READOUT": 0.11
  },
  {
    "SUBSTANCE": "H-HSQGTYTNDVSKYLDSRRAQDFIEWLIKGK-NH2",
    "NUMERIC_READOUT": 0.11
  },
  {
    "SUBSTANCE": "H-HSQGTYTNDVSKYLDSRRAQDFIEWLIKGKRNRNNIA-NH2",
    "NUMERIC_READOUT": -0.55
  },
  {
    "SUBSTANCE": "H-HSQGTYTNDVTEYLDSRRAQDFIEWLIKGK-NH2",
    "NUMERIC_READOUT": 0.41
  }
]

Any idea what log10 of EC50 was measured for `H-HSQGTYTNDVSKYLDSRRAQQFIEWLMNTKRNRNNIA-NH2` ?
-0.38

And for `H-HSQGTYTNDVSKYLDSRRAQDFIEWLIKG-NH2` ?
0.28

And for `H-HSQGTYTNDVTEYLDSRRAQEFIEWLIKGK-NH2` ?
0.43

And for `H-HSQGTYTNDVSKYLDSRRAQDFIEWLIKGKPSSGAPPPS-NH2` ?
-0.07

And for `H-HSQGTYTNDVTEYLDSRRAQDFIEWLKNGGPSSGAPPPS-NH2` ?
1.59

And for `H-HSQGTYTNDVTQYLDSRRAQQFIEWLMNTKRNRNNIA-NH2` ?
-0.03
